// data source = ChEMBL document CHEMBL4152320

Activity values for the compounds below.
# Test system: Mycobacterium tuberculosis
# Test Protocol: Inhibition of Mycobacterium tuberculosis salicylate synthase expressed in Escherichia coli BL21(DE3) assessed as residual activity at 100 uM using chorismic acid as substrate in presence of NADH by l-lactic dehydrogenase enzyme coupled assay relative to control
Answer with a number only, understood to be in %.

>>> readout_value("CS(=O)(=O)c1ccc(-c2ccc(C(=O)O)o2)cc1")
98.5
>>> readout_value("O=C(O)c1ccc(-c2ccc3nonc3c2)o1")
46.8
>>> readout_value("O=C(O)c1ccc(-c2ccc([N+](=O)[O-])cc2Cl)o1")
21.3
>>> readout_value("O=C(O)c1ccc(-c2ccc(O)cc2)o1")
96.3
>>> readout_value("COC(=O)c1ccc(-c2ccc([N+](=O)[O-])cc2)o1")
71.1
>>> readout_value("O=C(O)c1ccc(-c2ccc3c(c2)COC3=O)o1")
58
>>> readout_value("O=C(O)c1ccc(-c2ccc(C(F)(F)F)cc2)o1")
66.3
>>> readout_value("N#Cc1ccc(-c2ccc(C(=O)O)o2)cc1")
126

Exam item: Activity lookup needed for `O=C(O)c1ccc(-c2ccc(C(=O)O)o2)cc1` , thanks.
Marked response: 92.4

Exam item: Activity lookup needed for `O=C(O)c1cccc(-c2ccc([N+](=O)[O-])cc2)c1` , thanks.
Marked response: 36.8

Exam item: Activity lookup needed for `O=C(O)c1ccc(-c2ccc([N+](=O)[O-])cc2)o1` , thanks.
Marked response: 18.2

Exam item: Activity lookup needed for `O=C(O)c1ccc(-c2cccc([N+](=O)[O-])c2)o1` , thanks.
Marked response: 50.2

Exam item: Activity lookup needed for `COc1ccc(C(=O)O)cc1OCc1ccncc1` , thanks.
Marked response: 104

Exam item: Activity lookup needed for `O=C(O)c1ccc(-c2ccccc2)o1` , thanks.
Marked response: 102

Exam item: Activity lookup needed for `O=C(O)c1ccc([N+](=O)[O-])cc1Cl` , thanks.
Marked response: 89.3

Exam item: Activity lookup needed for `O=C(O)c1ccc(-c2ccccc2[N+](=O)[O-])o1` , thanks.
Marked response: 55.1

Exam item: Activity lookup needed for Cc1nc(C(C)NC(=O)c2ccoc2)sc1C(=O)O (stereo not drawn) , thanks.
Marked response: 109

Exam item: Activity lookup needed for `O=C(O)c1ccc(-c2ccc(-c3nn[nH]n3)cc2)o1` , thanks.
Marked response: 104

Exam item: Activity lookup needed for `O=C(O)c1ccc(-c2ccncc2)o1` , thanks.
Marked response: 45

Exam item: Activity lookup needed for `Cc1cc(C(=O)O)c2ccc(F)cc2n1` , thanks.
Marked response: 101

Exam item: Activity lookup needed for `COc1ccc([N+](=O)[O-])cc1S(=O)(=O)Nc1cccc(C(=O)O)c1` , thanks.
Marked response: 38.4

Exam item: Activity lookup needed for `NS(=O)(=O)c1ccc(-c2ccc(C(=O)O)o2)cc1` , thanks.
Marked response: 84.6

Exam item: Activity lookup needed for `O=C(O)c1ccc(-c2ccccc2Cl)o1` , thanks.
Marked response: 92.4
